- Test system: Small cell lung cancer (SCLC) cell lines
- assayOverview: Oncology cell growth assay (384-well, CellTiter-Glo)
- Format: cell-based
- conditionSummary: Homo sapiens; range for 35 of the 38 SCLC cell lines; read-out: gIC50
observable: IC50

[
  {
    "molSmiles": "COC[C@@H](C)n1c(C2CCOCC2)nc2cnc3cc(-c4c(C)noc4C)c(OC)cc3c21",
    "studyTarget": "Small cell lung cancer (SCLC) cell lines",
    "readoutValue": "76 to 2500 nM"
  }
]
